# Test system: MS2 coat protein
# EXPERIMENT_NOTES: apparent KD of MS2 coat protein; designed switch direction (-1 OFF switch, 1 ON switch): -1; higher = weaker reporter binding
# EXPERIMENTAL_CONTEXT: Eterna round: R95; input ligand: microRNA oligo, concentration not stated
PROPERTY: apparent KD of MS2 coat protein (nM)
Provide only the numeric value, understood in nM.

Report apparent KD of MS2 coat protein for UUUAAUUUUUUUUUUUUACAAGCUUUUUGCUCGUCUUAUACAUGAGGAUCACCCAUGUGGGUAGAGGAUAAAUUAUC [JMF 28] (puzzle: Sensor v3, turn-off variant 2) please.
61.1

Report apparent KD of MS2 coat protein for CUCUUGUCAGGAUAUUAUGGACGAUAGCAGGACUACGUCAGUGAGAAGGGACAUGAGGAUCACCCAUGUAAAAU [Anqubi] (puzzle: Exclusion 4) please.
72.6

Report apparent KD of MS2 coat protein for UCAUACGAUGAGGAUAUCUCAGUUAAAGUAUUUAGAGAAGGCGUUACAUGAGGAUCACCCAUGUUUGUGGGCAG [Ex-6 Malc#8] (puzzle: Exclusion 6) please.
93.9

Report apparent KD of MS2 coat protein for CUAUCAAGCAAGGAUAUGCAAUUUAUUAUUUAUGCAGAAGGUGCAACAUGAGGAUCACCCAUGUUUCUGGGUUU [JR_E6_Sub047] (puzzle: Exclusion 6) please.
39.5

Report apparent KD of MS2 coat protein for UUAUUAAGUGUGAGGAUAUGCUGGUCCUUGGAUCAGCAGAAGGCACAUGAGGAUCACCCAUGUACAAUAUUUUA [Mat - Exclusion 4 - JL Mod - D29] (puzzle: Brourd's mod of Exclusion 4) please.
35.8

Report apparent KD of MS2 coat protein for UUUUUGUGAGGAUAUCAGUAGUAAAAAAAUAAAAUUACUACUGAGAAGGCACAUGAGGAUCACCCAUGUUUUUC [salish99_ex4_r3_014] (puzzle: Exclusion 4) please.
35.6

Report apparent KD of MS2 coat protein for ACAUGGAAGCAGGAUAUGCUUGUAUAAUUGAAAGCAGAAGGGCUAACAUGAGGAUCACCCAUGUAAGAGGUCUA [JR_E6_Sub060] (puzzle: Exclusion 6) please.
21

Report apparent KD of MS2 coat protein for AGAUGUACCUAGGAUAUCCGUCGAAUUGGACUAGGAGAAGGAGGUACAUGAGGAUCACCCAUGUAUGACUCCUG [Bemabice] (puzzle: Exclusion 6) please.
10.1

Report apparent KD of MS2 coat protein for CGUGCGUAUGUGAGGAUAUGCUGGUCCUUGGAUCGGCAGAAGGCACAUGAGGAUCACCCAUGUGGUGUCGUGCA [salish99_Bmod_ex4_090] (puzzle: Brourd's mod of Exclusion 4) please.
190

Report apparent KD of MS2 coat protein for UGGUAACAUGAGGAUCACCCAUGUCAGGAUAUCAGUAAGAAGAGAGGAGAGUAGAAGAUGAGAAGGGACUAUAU [Excluse me! 9 - Jieux - Exclusion 1] (puzzle: Exclusion 1) please.
29.9

Report apparent KD of MS2 coat protein for GGCAAUAACGAGGAUAUCGUAUCGGAAACGAUACGAGAAGGUGUAACAUGAGGAUCACCCAUGUUCCUCAAGCC [Fiskers Ex 6 - 8] (puzzle: Exclusion 6) please.
33.9

Report apparent KD of MS2 coat protein for AAUAACAGAGGAUAUACUAUUUUAUGUGUUUGUUGUUUUGAACAUGAGGAUCACCCAUGUAGAAGGCUGAAUAA [JMF 26] (puzzle: Exclusion 2) please.
22.1

Report apparent KD of MS2 coat protein for ACAAGCUUUUUGUUCGUCUUAUAAUAAUAAAUAAAUAUAACAUGAGGAUCACCCAUGUUAAGAAGACGGCCUCAUGU [Sesor Array 21 - Jieux - Sensor v3, turn-off variant 2] (puzzle: Sensor v3, turn-off variant 2) please.
174

Report apparent KD of MS2 coat protein for AGUAACAGAGGAUAUACUGUUUUAUGUGUUUAUUGUUUUAAACAUGAGGAUCACCCAUGUAGAAGGCUGAAUAA [JMF 85] (puzzle: Exclusion 2) please.
25.5

Report apparent KD of MS2 coat protein for GUGUACGGAGGAUAUAUAUGGGCAGCAUACGCUGCAGCUUCACAUGAGGAUCACCCAUGUAGAAGGCUGUGCAC [JL-ex2-2.10 Brourd mod] (puzzle: Exclusion 2) please.
19.9

Report apparent KD of MS2 coat protein for AAUGAGCUAGGAUAUACAUGAGGAUCACCCAUGUAAAAUAGGUCAUGGAGGAACCACUGUAGAAGGAGCAGGGC [Zagereti] (puzzle: Exclusion 3) please.
47.1

Report apparent KD of MS2 coat protein for CCAUCGUGUGUGAGGAUAUGCUGGUCCUUGGAUCAGCAGAAGGCACAUGAGGAUCACCCAUGUGAAAACGGUGG [Mat - Exclusion 4 - JL Mod - D86] (puzzle: Brourd's mod of Exclusion 4) please.
22.3

Report apparent KD of MS2 coat protein for AAGAAGAAACAAGCUUUUUGCACGUCAGGUAGUGACGCAACAUGAGGAUCACCCAUGUAUAGGGUGGGAAAGGAUAG [JR_SV3TOV2_Sub048] (puzzle: Sensor v3, turn-off variant 2) please.
30.9

Report apparent KD of MS2 coat protein for GGAAAGUGAGGAUAUGGUAAUUUAAUUAUUAAUUAAUUAAUCCAGAAGGCACAUGAGGAUCACCCAUGUAAAGG [Mat - Exclusion 4 - D92] (puzzle: Exclusion 4) please.
30.7

Report apparent KD of MS2 coat protein for UAGAGACAUGAGGAUCACCCAUGUGAGGAUAUAGAGAAAGAUUGCGAGAGGGAGAGGACUAGAAGGCACAGUGA [JR_Exclu1_Sub033] (puzzle: Exclusion 1) please.
48.8

Report apparent KD of MS2 coat protein for CCGGCUUAGGAGGAUAUAGGAGUCGAUAGACACCUAGAAGGCCUAACAUGAGGAUCACCCAUGUGUCCUACCGG [Fiskers Ex 6 - 99] (puzzle: Exclusion 6) please.
16.3
